Tested on: NCI-H1793
Test protocol: relative viability (nuclei count vs DMSO), 5 days (fraction); higher = more cells survive
Condition parameters: first compound 0.03162 µM
Each entry below lists one item and its recorded relative viability value.
Recorded endpoint: relative viability

Compound | Recorded endpoint | Value
NC(=O)Nc1cc(-c2cccc(F)c2)sc1C(=O)N[C@H]1CCCNC1 [AZD7762] + CCNC(=O)c1noc(-c2cc(C(C)C)c(O)cc2O)c1-c1ccc(CN2CCOCC2)cc1 [Luminespib] (partner 0.01 µM) | relative viability | 0.195
NC(=O)Nc1cc(-c2cccc(F)c2)sc1C(=O)N[C@H]1CCCNC1 [AZD7762] + C[C@]1(O)C[C@@H](c2nc(-c3ccc4ccc(-c5ccccc5)nc4c3)c3c(N)nccn32)C1 [Linsitinib] (partner 1 µM) | relative viability | 0.82
NC(=O)Nc1cc(-c2cccc(F)c2)sc1C(=O)N[C@H]1CCCNC1 [AZD7762] + CS(=O)(=O)CCNCc1ccc(-c2ccc3ncnc(Nc4ccc(OCc5cccc(F)c5)c(Cl)c4)c3c2)o1 [Lapatinib] (partner 2 µM) | relative viability | 0.721
NC(=O)Nc1cc(-c2cccc(F)c2)sc1C(=O)N[C@H]1CCCNC1 [AZD7762] + CC1(C)CCC(c2ccc(Cl)cc2)=C(CN2CCN(c3ccc(C(=O)NS(=O)(=O)c4ccc(N[C@H](CCN5CCOCC5)CSc5ccccc5)c(S(=O)(=O)C(F)(F)F)c4)cc3)CC2)C1 [Navitoclax] (partner 0.5 µM) | relative viability | 0.645
NC(=O)Nc1cc(-c2cccc(F)c2)sc1C(=O)N[C@H]1CCCNC1 [AZD7762] + CS(=O)(=O)N1CCN(Cc2cc3nc(-c4cccc5[nH]ncc45)nc(N4CCOCC4)c3s2)CC1 [Pictilisib] (partner 1 µM) | relative viability | 0.371
